FYI, the data here is from patent US12403137B2.

molecular target: PRMT5 (Homo sapiens, UniProt O14744); construct: purchased Viva (custom protein); assay: PRMT5 inhibition assay with no cofactor; format: biochemical; conditions: against PRMT5 with no cofactor; read-out: No Co-factor IC50
Sequence (O14744 whole entry): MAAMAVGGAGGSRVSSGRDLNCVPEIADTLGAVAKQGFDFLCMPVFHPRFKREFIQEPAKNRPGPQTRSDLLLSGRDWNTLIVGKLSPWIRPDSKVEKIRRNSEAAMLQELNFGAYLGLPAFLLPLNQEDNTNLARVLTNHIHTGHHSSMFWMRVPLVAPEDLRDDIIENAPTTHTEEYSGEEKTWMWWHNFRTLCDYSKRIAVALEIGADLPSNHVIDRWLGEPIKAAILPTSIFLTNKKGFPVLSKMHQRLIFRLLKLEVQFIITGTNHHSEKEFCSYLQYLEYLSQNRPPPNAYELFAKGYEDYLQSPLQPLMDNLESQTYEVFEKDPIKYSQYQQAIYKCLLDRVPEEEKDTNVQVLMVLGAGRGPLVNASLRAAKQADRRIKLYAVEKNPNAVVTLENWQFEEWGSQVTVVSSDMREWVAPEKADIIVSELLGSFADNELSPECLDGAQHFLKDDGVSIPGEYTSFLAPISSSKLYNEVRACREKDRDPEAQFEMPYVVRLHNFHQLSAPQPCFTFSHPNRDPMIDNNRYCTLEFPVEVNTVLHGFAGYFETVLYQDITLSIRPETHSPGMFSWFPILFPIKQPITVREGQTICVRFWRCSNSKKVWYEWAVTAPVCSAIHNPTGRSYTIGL
Sequence (Q9BQA1 whole entry partner): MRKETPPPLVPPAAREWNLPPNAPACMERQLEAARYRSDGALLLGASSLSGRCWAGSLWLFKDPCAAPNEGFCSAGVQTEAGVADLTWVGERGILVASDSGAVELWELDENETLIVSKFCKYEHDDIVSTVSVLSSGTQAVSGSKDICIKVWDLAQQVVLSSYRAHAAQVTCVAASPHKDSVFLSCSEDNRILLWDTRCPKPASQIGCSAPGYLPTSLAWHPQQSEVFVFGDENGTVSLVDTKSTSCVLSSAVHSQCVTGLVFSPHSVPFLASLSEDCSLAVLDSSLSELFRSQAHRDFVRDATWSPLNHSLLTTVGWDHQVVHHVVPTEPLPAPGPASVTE
pIC50: −log10 of the molar value.
Experimental Readout: pIC50

Example entries and their recorded answers appear below.
                                   compound                          study_target  experimental_readout  recorded_measurement
0  Cc1ncoc1COc1ccc2c(c1)CN[C@H]([C@H](O)CNC(=O)c1cc(NC3CC4(CCC4)C3)nc(N3CCN(C(=O)C4CC4)CC3)c1)C2  PRMT5 (Homo sapiens, UniProt O14744)                 pIC50          6.30 to 7.30
1  COCCN(C)c1cc(C(=O)NC[C@@H](O)[C@@H]2Cc3ccc(OCc4ocnc4C)cc3CN2)cc(NC2CCN(C(C)=O)CC2)n1  PRMT5 (Homo sapiens, UniProt O14744)                 pIC50          6.30 to 7.30

[in] Could you tell me which pIC50 is on file for `CCN1CCN(c2cc(C(=O)NC[C@@H](O)[C@@H]3Cc4ccc(OCc5ocnc5C)cc4CN3)cc(NC3CCC3)n2)CC1` ?
[out] 6.30 to 7.30

[in] Could you tell me which pIC50 is on file for `CCOc1nc(N2CCN(C(=O)OC)CC2)ccc1C(=O)NC[C@@H](O)[C@@H]1Cc2ccc(OCc3cnco3)cc2CN1` ?
[out] 6.30 to 7.30

[in] Could you tell me which pIC50 is on file for `O=C(NC[C@@H](O)[C@@H]1Cc2ccc(OCc3cn[nH]c3)cc2CN1)c1ccc(C(=O)N2CCOCC2)cc1` ?
[out] 6.30 to 7.30

[in] Could you tell me which pIC50 is on file for `CC(=O)N1CCC(Nc2cc(C(=O)NC[C@@H](O)[C@@H]3Cc4ccc(OCc5ocnc5C)cc4CN3)ccn2)CC1` ?
[out] 6.30 to 7.30

[in] Could you tell me which pIC50 is on file for `CC(=O)N1CCC(Nc2cc(C(=O)NC[C@@H](O)[C@@H]3Cc4ccc(OCc5ocnc5C)cc4CN3)nc(N3CCCCC3)n2)CC1` ?
[out] 6.30 to 7.30

====

biological target: PRMT5 (Homo sapiens); construct: purchased Viva (custom protein); test: PRMT5 inhibition assay with no cofactor; format: biochemical; conditions: against PRMT5 with no cofactor; read-out: No Co-factor IC50
pIC50: −log10 of the molar value.
Attribute: pIC50

Example entries and their recorded answers appear below.
In [3]: df
Out[3]:
                                   compound  experimental_readout  recorded_measurement
0  CC(=O)N1CCC(Nc2cc(C(=O)NC[C@@H](O)[C@@H]3Cc4ccc(OCc5ocnc5C)cc4CN3)nc(N3CCN(C(C)C)CC3)n2)CC1                 pIC50          6.30 to 7.30
1  CCCN(C)c1nc(NC2COC2)cc(C(=O)NC[C@@H](O)[C@@H]2Cc3ccc(OCc4ocnc4C)cc3CN2)n1                 pIC50                ≤ 5.30
2  CCOc1cc(C(=O)N2[C@@H]3CCC[C@H]2COC3)ccc1C(=O)NC[C@@H](O)[C@@H]1Cc2ccc(OCc3cnco3)cc2CN1                 pIC50          5.30 to 6.30
3  O=C(NC[C@@H](O)[C@@H]1Cc2ccc(OCc3cnco3)cc2CN1)c1ccc(C(=O)N2CCOCC2)cc1                 pIC50                ≤ 5.30

[in] Could you tell me which pIC50 is on file for `Cc1ncoc1COc1ccc2c(c1)CN[C@H]([C@H](O)CNC(=O)c1ccc(OC3CCN(Cc4ccncc4)CC3)cc1)C2` ?
[out] 6.30 to 7.30

[in] Could you tell me which pIC50 is on file for `COCCN(C)c1nc(NC2CN(C(C)=O)C2)cc(C(=O)NC[C@@H](O)[C@@H]2Cc3ccc(OCc4ocnc4C)cc3CN2)n1` ?
[out] 6.30 to 7.30

[in] Could you tell me which pIC50 is on file for CC(=O)N1CC(Nc2cc(C(=O)NC[C@@H](O)[C@@H]3Cc4ccc(OCc5ocnc5C)cc4CN3)nc(N3CC4CCC3C4)n2)C1 (stereo partly shown) ?
[out] 6.30 to 7.30

[in] Could you tell me which pIC50 is on file for `Cc1ncoc1COc1ccc2c(c1)CN[C@H]([C@H](O)CNC(=O)c1cc(NC3CC4(CCC4)C3)ncn1)C2` ?
[out] 6.30 to 7.30

[in] Could you tell me which pIC50 is on file for `COCCN(C)c1nc(NC2CCN(C(C)=O)CC2)cc(C(=O)NC[C@@H](O)[C@@H]2Cc3ccc(OCc4ocnc4C)cc3CN2)n1` ?
[out] 6.30 to 7.30

[in] Could you tell me which pIC50 is on file for `CCOc1cc(C(=O)N2C3CCC2COC3)ccc1C(=O)NC[C@@H](O)[C@@H]1Cc2ccc(OCc3ocnc3C)cc2CN1` ?
[out] 5.30 to 6.30

[in] Could you tell me which pIC50 is on file for `Cc1ncoc1COc1ccc2c(c1)CN[C@H]([C@H](O)CNC(=O)c1cccc(-c3ccccn3)c1)C2` ?
[out] ≤ 5.30

[in] Could you tell me which pIC50 is on file for `COc1cnc(NC2CCC2)cc1C(=O)NC[C@@H](O)[C@@H]1Cc2ccc(OCc3ocnc3C)cc2CN1` ?
[out] 5.30 to 6.30

[in] Could you tell me which pIC50 is on file for `CC(=O)N1CC(Nc2cc(C(=O)NC[C@@H](O)[C@@H]3Cc4ccc(OCc5ocnc5C)cc4CN3)nc(N3CCCC3)n2)C1` ?
[out] 6.30 to 7.30
